B1: TPR 5TU (parent)
chain: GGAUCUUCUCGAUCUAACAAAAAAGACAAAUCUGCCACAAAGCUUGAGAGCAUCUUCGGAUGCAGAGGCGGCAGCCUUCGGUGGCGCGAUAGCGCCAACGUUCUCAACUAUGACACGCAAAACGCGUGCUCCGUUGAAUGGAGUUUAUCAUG

Variants of: B1
Experiment: polymerase ribozyme fitness, log enrichment relative to wild type (log ratio); higher = more active; in vitro selection for triplet polymerase activity
Variants at the floor of the assay were thinned out.
Each entry below lists one item and its recorded polymerase ribozyme fitness (log ratio) value.

Worked set:
A52U U104A G133C G141C U146G	≤ -4.2
C76A G128C	-3.67

q: Identify polymerase ribozyme fitness (log ratio) associated with the variant U33G U53A G58A
a: -3.78

q: Annotate the variant A19C G46A G62A G94A C95A with its measured polymerase ribozyme fitness (log ratio).
a: ≤ -4.2

q: Item U31A G48C C85A : provide polymerase ribozyme fitness (log ratio)
a: -2.98

q: Quote polymerase ribozyme fitness (log ratio) reported for G42C C43U A91U C93G please.
a: ≤ -4.2

q: Let me know recorded polymerase ribozyme fitness (log ratio) for A98U A137C , thanks.
a: -4.19

q: Give the value of polymerase ribozyme fitness (log ratio) reported for the following: C87U A106G
a: -0.549

q: Item C35G U78G C99A : provide polymerase ribozyme fitness (log ratio)
a: ≤ -4.2
